# Measured on: IRAK4 (Homo sapiens)
# Construct: Degradation of IRAK4 in OCI-LY10 was quantitatively measured using Meso Scale Discovery technology; endogenous in cells; host or cells: OCI-LY10
# Sequence (Q9NWZ3 whole entry): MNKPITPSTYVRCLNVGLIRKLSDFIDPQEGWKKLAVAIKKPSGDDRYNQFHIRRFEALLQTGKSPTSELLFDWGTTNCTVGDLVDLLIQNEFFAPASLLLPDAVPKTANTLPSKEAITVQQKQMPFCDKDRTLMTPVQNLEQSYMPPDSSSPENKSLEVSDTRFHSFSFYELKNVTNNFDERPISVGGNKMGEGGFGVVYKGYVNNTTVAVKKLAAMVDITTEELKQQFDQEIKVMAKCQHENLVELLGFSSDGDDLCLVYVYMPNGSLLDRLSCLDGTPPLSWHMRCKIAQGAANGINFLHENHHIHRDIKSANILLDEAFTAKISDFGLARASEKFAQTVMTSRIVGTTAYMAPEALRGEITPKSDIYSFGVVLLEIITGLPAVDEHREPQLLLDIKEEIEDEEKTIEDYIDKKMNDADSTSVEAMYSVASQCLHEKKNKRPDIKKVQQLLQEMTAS
# Assay protocol: IRAK4 MSD Degradation in OCI-LY10
# Format: cell-based
# Experimental parameters: OCI-LY10 cells, 4 hrs incubation, MSD; read-out: IRAK4 degradation in OCI-LY10 at 4 hrs: DC50
DC50 values by entry

Check out these entries, answers already filled in.
1. COc1cc2nc([C@H]3CC[C@H](CN4CCC5(CC4)CCN(c4cccc6c4n(C)c(=O)n6C4CCC(=O)NC4=O)CC5)CC3)ccc2cc1NC(=O)c1cncc(C#N)c1 (some centres unmarked) :: < 10 nM
2. CN1CCOCC1c1ccn2ncc(C(=O)Nc3cn([C@H]4CC[C@H](CN5CCC(OCC#Cc6cccc7c6n(C)c(=O)n7C6CCC(=O)NC6=O)CC5)CC4)nc3C(F)F)c2n1 (some centres unmarked) :: > 200 nM
3. Cn1c(=O)n(C2CCC(=O)NC2=O)c2cccc(C#CCOC3CCN(C[C@H]4CC[C@H](n5cc(NC(=O)c6cnn7ccc(N8CCOC(C(F)(F)F)C8)nc67)c(C(F)F)n5)CC4)CC3)c21 (some centres unmarked) :: > 200 nM
4. C[C@H]1CN(c2ccn3ncc(C(=O)Nc4cn([C@H]5CC[C@H](CN(C)C6CCN(c7cccc8c7n(C)c(=O)n8C7CCC(=O)NC7=O)CC6)CC5)nc4C(F)F)c3n2)C[C@H](C)O1 (some centres unmarked) :: < 10 nM
5. Cn1c(=O)n(C2CCC(=O)NC2=O)c2cccc([C@@H]3CCN(C[C@]4(O)CC[C@@H](n5cc6cc(NC(=O)c7cccc(C(F)(F)F)n7)ccc6n5)CC4)C[C@H]3F)c21 (some centres unmarked) :: > 200 nM
6. O=C1CCC(c2cncc3c(C#CCN4CCN(C[C@H]5CC[C@@H](n6cc(NC(=O)c7cnn8ccc(N9C[C@H]%10C[C@@H]9CO%10)nc78)c(C(F)F)n6)CC5)CC4)cccc23)C(=O)N1 (some centres unmarked) :: > 200 nM
7. Cn1c(=O)n(C2CCC(=O)NC2=O)c2cccc(C#CCN3CCC(C[C@H]4CC[C@H](n5cc6cc(NC(=O)c7cccc(C(F)(F)F)n7)ccc6n5)CC4)CC3)c21 (some centres unmarked) :: > 200 nM

Bench note, IRAK4 (Homo sapiens): entry O=C1CCN(c2cccc(C#CCN3CCN(C[C@H]4CC[C@@H](n5cc(NC(=O)c6cnn7ccc(N8CC9CCC(C8)O9)nc67)c(C(F)F)n5)CC4)CC3)c2)C(=O)N1 , its DC50 = > 200 nM
